The measurements presented in this section are drawn from patent US8426412B2.

# Test system: Colletotrichum lagenarium (COLLLA)
# METHOD_DESCRIPTION: Activity towards plant pathogenic fungi, growth inhibition in microtiter plates
# Type: cell-based
# MEASUREMENT_CONTEXT: Colletotrichum orbiculare; 50% inhibition of growth; 25° C., 72 h, NepheloStar plate reader; read-out: EC50 COLLLA
# note: boundary value 0.1 µg/mL maps to no (0); EC50 below it maps to yes (1)

INSERT INTO assay_data (molecule, measured_target, discrete_label) VALUES
  ('CCC#CCN1N=C(c2ccc(Cl)c(Cl)n2)CCC1=O', 'Colletotrichum lagenarium (COLLLA)', 'yes (1)'),
  ('CCC#CCn1nc(-c2ccc(Cl)c(Cl)n2)ccc1=O [drawing 106]', 'Colletotrichum lagenarium (COLLLA)', 'yes (1)'),
  ('CCC#CCN1N=C(c2ccc(Cl)cn2)CCC1=O', 'Colletotrichum lagenarium (COLLLA)', 'no (0)'),
  ('CCC#CCn1nc(-c2ccc(Cl)cn2)ccc1=O [drawing 96]', 'Colletotrichum lagenarium (COLLLA)', 'no (0)'),
  ('CCCCCOCC#CCn1nc(-c2ccc(Cl)cn2)ccc1=O [drawing 98]', 'Colletotrichum lagenarium (COLLLA)', 'yes (1)'),
  ('CCC#CCn1nc(-c2ccc(C(F)(F)F)cn2)ccc1=O', 'Colletotrichum lagenarium (COLLLA)', 'no (0)'),
  ('O=c1ccc(-c2ccc(Cl)cn2)nn1CC#CC1CC1 [drawing 101]', 'Colletotrichum lagenarium (COLLLA)', 'yes (1)'),
  ('CCC#CCn1nc(-c2ccc(Cl)c(F)n2)ccc1=O [drawing 114]', 'Colletotrichum lagenarium (COLLLA)', 'yes (1)'),
  ('CCC#CCN1N=C(c2cc(Cl)ccn2)CCC1=O', 'Colletotrichum lagenarium (COLLLA)', 'no (0)'),
  ('CCCCOCCOCC#CCn1nc(-c2ccc(Cl)cn2)ccc1=O [drawing 99]', 'Colletotrichum lagenarium (COLLLA)', 'yes (1)'),
  ('CCC#CCn1nc(-c2cccc(Cl)n2)ccc1=O [drawing 105]', 'Colletotrichum lagenarium (COLLLA)', 'no (0)');
